Experiment: Lisdexamphetamine plasma pharmacokinetics, crossover drug-drug interaction study
Assay type: in vivo, healthy adults
Details: human, plasma, po, 50 mg, single oral dose 50 mg; read-out: lisdexamphetamine AUCinfo, Mean
endpoint name: AUC (ng·h/mL)
Answers are plain numbers, in ng·h/mL.

input: # query: AUC of entry C[C@@H](Cc1ccccc1)NC(=O)[C@@H](N)CCCCN [VYVANSE Alone, lisdexamphetamine dimesylate]
output: 36.1

====

Experiment: Lisdexamphetamine plasma pharmacokinetics, crossover drug-drug interaction study
Type: in vivo, healthy adults
Conditions: human, plasma, po, 50 mg, single oral dose 50 mg; read-out: lisdexamphetamine Cmax, Median
endpoint name: Cmax (ng/mL)
Give bare numbers, in ng/mL.

input: Can you look up the measured Cmax of C[C@@H](Cc1ccccc1)NC(=O)[C@@H](N)CCCCN [VYVANSE Alone, lisdexamphetamine dimesylate] for me?
output: 25.2

====

Assay: Lisdexamphetamine plasma pharmacokinetics, crossover drug-drug interaction study
Assay type: in vivo, healthy adults
Settings: human, plasma; single oral dose 50 mg; read-out: lisdexamphetamine T1/2, Mean (converted)
endpoint name: half-life (min)
Give bare numbers, in min.

input: Which value of half-life has been reported for C[C@@H](Cc1ccccc1)NC(=O)[C@@H](N)CCCCN [VYVANSE Alone, lisdexamphetamine dimesylate] in the records?
output: 30

====

Assay: Lisdexamphetamine plasma pharmacokinetics, crossover drug-drug interaction study
Assay type: in vivo, healthy adults
Details: human, plasma, po, 50 mg, single oral dose 50 mg; weight normalized; read-out: lisdexamphetamine VZ/F, Mean
endpoint name: Vd/F (L/kg)
Give bare numbers, in L/kg.

input: Please give the measured Vd/F for this compound: C[C@@H](Cc1ccccc1)NC(=O)[C@@H](N)CCCCN [VYVANSE Alone, lisdexamphetamine dimesylate]
output: 16

====

Test: Lisdexamphetamine plasma pharmacokinetics, crossover drug-drug interaction study
Type: in vivo, healthy adults
Conditions: human, plasma, po, 50 mg, single oral dose 50 mg; weight normalized; read-out: lisdexamphetamine VZ/F, Geo Mean
endpoint name: Vd/F (L/kg)
One number for each entry, in L/kg.

input: Using the record for C[C@@H](Cc1ccccc1)NC(=O)[C@@H](N)CCCCN [VYVANSE Alone, lisdexamphetamine dimesylate] , report its Vd/F.
output: 14.4

====

Experiment: Lisdexamphetamine plasma pharmacokinetics, crossover drug-drug interaction study
Assay type: in vivo, healthy adults
Settings: human, plasma, po, 50 mg, single oral dose 50 mg; read-out: lisdexamphetamine Cmax, Geo Mean
endpoint name: Cmax (ng/mL)
Answers are plain numbers, in ng/mL.

input: Fill in the blank: the reported Cmax of C[C@@H](Cc1ccccc1)NC(=O)[C@@H](N)CCCCN [VYVANSE Alone, lisdexamphetamine dimesylate] is ____.
output: 22.5

====

Assay: Lisdexamphetamine plasma pharmacokinetics, crossover drug-drug interaction study
Type: in vivo, healthy adults
Details: human, plasma, po, 50 mg, single oral dose 50 mg; weight normalized; read-out: lisdexamphetamine CL/F, Mean (converted)
endpoint name: CL/F (mL/min/kg)
Answers are plain numbers, in mL/min/kg.

input: Which CL/F reading was recorded for the molecule C[C@@H](Cc1ccccc1)NC(=O)[C@@H](N)CCCCN [VYVANSE Alone, lisdexamphetamine dimesylate] ?
output: 362

====

Test: Lisdexamphetamine plasma pharmacokinetics, crossover drug-drug interaction study
Assay type: in vivo, healthy adults
Conditions: human, plasma, po, 50 mg, single oral dose 50 mg; weight normalized; read-out: lisdexamphetamine CL/F, Geo Mean (converted)
endpoint name: CL/F (mL/min/kg)
Numbers only, in mL/min/kg.

input: I'd like to know its CL/F. The compound in question is C[C@@H](Cc1ccccc1)NC(=O)[C@@H](N)CCCCN [VYVANSE Alone, lisdexamphetamine dimesylate]
output: 339

====

Assay: Lisdexamphetamine plasma pharmacokinetics, crossover drug-drug interaction study
Type: in vivo, healthy adults
Conditions: human, plasma, po, 50 mg, single oral dose 50 mg; read-out: lisdexamphetamine VZ/F, Geo Mean
endpoint name: Vd/F

input: Reported Vd/F, compound C[C@@H](Cc1ccccc1)NC(=O)[C@@H](N)CCCCN [VYVANSE Alone, lisdexamphetamine dimesylate] : ____
output: 1090 L

====

Test: Lisdexamphetamine plasma pharmacokinetics, crossover drug-drug interaction study
Format: in vivo, healthy adults
Conditions: human, plasma, po, 50 mg, single oral dose 50 mg; read-out: lisdexamphetamine AUClast, Mean
endpoint name: AUC(0-t) (ng·h/mL)
Give bare numbers, in ng·h/mL.

input: What value of AUC(0-t) has been recorded for this entry: C[C@@H](Cc1ccccc1)NC(=O)[C@@H](N)CCCCN [VYVANSE Alone, lisdexamphetamine dimesylate]
output: 32.1

====

Experiment: Lisdexamphetamine plasma pharmacokinetics, crossover drug-drug interaction study
Assay type: in vivo, healthy adults
Settings: human, plasma, po, 50 mg, single oral dose 50 mg; read-out: lisdexamphetamine Tmax, Mean
endpoint name: Tmax (h)
Numbers only, in h.

input: Quick one: Tmax for C[C@@H](Cc1ccccc1)NC(=O)[C@@H](N)CCCCN [VYVANSE Alone, lisdexamphetamine dimesylate] ?
output: 1.1

====

Assay: Lisdexamphetamine plasma pharmacokinetics, crossover drug-drug interaction study
Type: in vivo, healthy adults
Conditions: human, plasma, po, 50 mg, single oral dose 50 mg; read-out: lisdexamphetamine AUClast, Geo Mean
endpoint name: AUC(0-t) (ng·h/mL)
Give bare numbers, in ng·h/mL.

input: AUC(0-t) lookup needed for C[C@@H](Cc1ccccc1)NC(=O)[C@@H](N)CCCCN [VYVANSE Alone, lisdexamphetamine dimesylate] , thanks.
output: 28.3

====

Experiment: Lisdexamphetamine plasma pharmacokinetics, crossover drug-drug interaction study
Type: in vivo, healthy adults
Settings: human, plasma, po, 50 mg, single oral dose 50 mg; read-out: lisdexamphetamine VZ/F, Mean
endpoint name: Vd/F
Answers without a unit are incomplete; give the number and then its unit.

input: Find the recorded Vd/F belonging to C[C@@H](Cc1ccccc1)NC(=O)[C@@H](N)CCCCN [VYVANSE Alone, lisdexamphetamine dimesylate] and report it.
output: 1270 L

====

Assay: Lisdexamphetamine plasma pharmacokinetics, crossover drug-drug interaction study
Type: in vivo, healthy adults
Conditions: human, plasma, po, 50 mg, single oral dose 50 mg; read-out: lisdexamphetamine Cmax, Mean
endpoint name: Cmax (µg/mL)
Numbers only, in µg/mL.

input: Please give the measured Cmax for this compound: C[C@@H](Cc1ccccc1)NC(=O)[C@@H](N)CCCCN [VYVANSE Alone, lisdexamphetamine dimesylate]
output: 0.0261

====

Experiment: Lisdexamphetamine plasma pharmacokinetics, crossover drug-drug interaction study
Type: in vivo, healthy adults
Settings: human, plasma, po, 50 mg, single oral dose 50 mg; read-out: lisdexamphetamine AUCinfo, Median
endpoint name: AUC (ng·h/mL)
Give bare numbers, in ng·h/mL.

input: Name the reported AUC value associated with the compound C[C@@H](Cc1ccccc1)NC(=O)[C@@H](N)CCCCN [VYVANSE Alone, lisdexamphetamine dimesylate]
output: 33.2

====

Test: Lisdexamphetamine plasma pharmacokinetics, crossover drug-drug interaction study
Format: in vivo, healthy adults
Settings: human, plasma, po, 50 mg, single oral dose 50 mg; read-out: lisdexamphetamine AUClast, Median
endpoint name: AUC(0-t) (ng·h/mL)
Give bare numbers, in ng·h/mL.

input: Given the entry C[C@@H](Cc1ccccc1)NC(=O)[C@@H](N)CCCCN [VYVANSE Alone, lisdexamphetamine dimesylate] , report its measured AUC(0-t).
output: 27.2

Values were extracted from patent US20110313046A1.
